- STUDY SYSTEM: human PRMT8 (Homo sapiens, UniProt Q9NR22)
- Sequence (Q9NR22 whole entry): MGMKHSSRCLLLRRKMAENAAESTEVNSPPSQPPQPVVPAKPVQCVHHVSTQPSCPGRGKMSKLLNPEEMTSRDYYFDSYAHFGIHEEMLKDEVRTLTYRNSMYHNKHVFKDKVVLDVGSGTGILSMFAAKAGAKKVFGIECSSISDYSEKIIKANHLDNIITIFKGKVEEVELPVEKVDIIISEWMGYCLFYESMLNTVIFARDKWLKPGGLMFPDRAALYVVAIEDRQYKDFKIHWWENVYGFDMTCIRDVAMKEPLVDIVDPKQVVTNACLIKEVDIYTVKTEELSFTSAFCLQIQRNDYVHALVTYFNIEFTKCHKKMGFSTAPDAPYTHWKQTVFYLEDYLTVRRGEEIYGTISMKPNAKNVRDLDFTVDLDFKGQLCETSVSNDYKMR
- EXPERIMENT SUMMARY: PRMT8 Biochemical Assay (3H-SAM Flashplate, peptide substrate)
- RUN CONDITIONS: single experiment or average of multiple experiments
I'd be grateful if you could share measured pIC50 for these entries.
Expect pIC50 as a plain number equal to -log10 of the molar concentration.

q: Could you share which pIC50 value was measured for "CNCCN(C)Cc1c[nH]nc1-c1ccc(F)c(F)c1" ?
a: 6.73

q: Suppose we examine the compound "CN(CCN)Cc1c[nH]nc1-c1ccc(OC(F)(F)F)cc1" ; what pIC50 value has been reported?
a: 7.12

q: What value of pIC50 has been reported for the following compound? "CN(CCN)Cc1c[nH]nc1-c1ccc(OCC(F)(F)F)cc1"
a: 6.77

q: For CN(CCN)Cc1cnn(CC(O)CO)c1-c1ccc(F)cc1 (centres unmarked) , what is its reported pIC50?
a: 5.07

q: So what does the record say about pIC50 for "CNCCN(C)Cc1c[nH]nc1-c1ccc(OCCOC)cc1" ?
a: 7.34

q: Please give the measured pIC50 for this compound: "CNCCN(C)Cc1c[nH]nc1-c1c(OC)cccc1OC"
a: 4.46

q: So what does the record say about pIC50 for "CCn1ncc(CN(C)CCNC)c1-c1ccc(F)cc1" ?
a: 5.49

q: Reported pIC50, compound CC(O)c1ccc(-c2n[nH]cc2CN(C)CCN)cc1 (centres unmarked) : ____
a: 5.96

q: Which pIC50 value belongs to "CCCN(CCN)Cc1c[nH]nc1-c1ccc(F)cc1" ?
a: 5.10

q: Sample "CNCCN(C)Cc1c[nH]nc1-c1ccc(OCC2CCC2)cc1" — what was its pIC50?
a: 7.85

q: Given "CCN(CCNC)Cc1c[nH]nc1-c1ccc(F)cc1" , state its recorded pIC50.
a: 6.40

q: Would you kindly share the measured pIC50 for "CNCCN(C)Cc1c[nH]nc1-c1ccc(C(C)(C)COC)cc1" ?
a: 7.22

q: Look up pIC50 for this compound: "CN(CCN)Cc1c[nH]nc1-c1ccc(C(F)(F)F)c(Cl)c1"
a: 7.06

q: Which value of pIC50 has been reported for "CNCCN(C)Cc1c[nH]nc1-c1ccc(Oc2cncnc2)cc1" in the records?
a: 7.26

q: Quick one: pIC50 of "CCOc1ccc(-c2n[nH]cc2CN(C)CCN)cc1" ?
a: 6.72

q: Please report the recorded pIC50 for "CN(CCN)Cc1cnn(CCO)c1-c1ccc(F)cc1" .
a: 5.06

q: Which pIC50 value is on record for "CNCCN(C)Cc1c[nH]nc1-c1ccc(OC2COC2)cc1" ?
a: 7.37

q: Fill blank: measured pIC50 of the compound "COc1ccc(-c2n[nH]cc2CN(C)CCN)cc1Cl" is ____.
a: 6.51

q: What value of measured pIC50 is listed for "CCC(=O)N1CCN(c2ccc(-c3n[nH]cc3CN(C)CCN)cc2)CC1" ?
a: 5.52

q: Which pIC50 value belongs to CNCCN(C)Cc1cn(CCC(O)CO)nc1-c1ccc(F)cc1 (centres unmarked) ?
a: 5.05

* * *

- Test system: mono-methyl arginine in RKO cells
- EXPERIMENT SUMMARY: RKO Methylation Assay, In Cell Western (ICW) for mono-methyl arginine and DNA content
- Assay type: cell-based
- RUN CONDITIONS: Homo sapiens, RKO, 72 h, RKO cells, 72 hours, mono-methyl arginine, percent activation; single experiment or average of multiple experiments; read-out: EC30 (In Cell Western data, Numerical)
If the reported EC30 equals or exceeds 0.3 µM, assign met. If not, assign not met.

q: Is EC30 for "CNCCN(C)Cc1c[nH]nc1-c1ccc(OC2CCOCC2)cc1" at or above 0.3 µM?
a: not met

q: Decide: EC30 of CNCCN(C)Cc1cnn(C2CCOC2)c1-c1ccc(OC(C)C)cc1 (stereo not drawn) >= 0.3 µM?
a: met

q: Given "CNCCN(C)Cc1n[nH]cc1-c1ccc(OC(C)C)c(F)c1" , state whether its EC30 is at least 0.3 µM.
a: not met

q: I'd appreciate it if you could say whether "CC[C@@H](C)Oc1ccc(-c2n[nH]cc2CN(C)CCNC)cc1" has EC30 at least equal to 0.3 µM.
a: not met

q: Given the entry "CN(CCN)Cc1n[nH]cc1-c1ccc(C2CC2)cc1" , answer whether its EC30 meets or surpasses 0.3 µM.
a: met

q: Please indicate if the recorded EC30 for "CCN(C)C(=O)c1cccc(-c2n[nH]cc2CN(C)CCN)c1" meets or exceeds 0.3 µM.
a: met

Values compiled from patent US9776972B2.
